B1: Chromodomain-helicase-DNA-binding protein 4, residues 444 to 496; numbered along this chain, Q14839 (parent)
chain: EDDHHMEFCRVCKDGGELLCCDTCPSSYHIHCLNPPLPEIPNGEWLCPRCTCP

- Variants of: B1
- protocol: abundance fitness (aPCA) (normalised: wild type 0, dead -1); higher = more abundant; growth selection in yeast, the domain comes from the species named
- study-conditions: Homo sapiens
Reported values of abundance fitness for individual entries
recorded-metric: abundance fitness

>>> value_measured("W45R")
-0.446
>>> value_measured("D14F")
-0.34
>>> value_measured("D22M")
-0.26
>>> value_measured("D14M")
-0.139
>>> value_measured("H5C")
0.068
>>> value_measured("H29D")
-0.811
>>> value_measured("D3A")
-0.211
>>> value_measured("C21Y")
-0.871
>>> value_measured("P25Q")
-0.209
>>> value_measured("D2S")
0.202
>>> value_measured("P36W")
-0.546
>>> value_measured("P38R")
-0.046
>>> value_measured("C32M")
-1
>>> value_measured("H5G")
0.106
>>> value_measured("C52F")
-0.358
>>> value_measured("H29W")
-1.1
>>> value_measured("P48S")
-0.21
>>> value_measured("L46A")
-0.033
>>> value_measured("C24N")
-0.881
>>> value_measured("L19I")
0.1
>>> value_measured("R49I")
0.016
>>> value_measured("C21G")
-0.722

The origin of these recorded values is the Human Domainome abundance scans (Beltran et al. 2025).
